test name: Human plasma binding affinity was determined
Assay type: ADME, cell-free
settings: read-out: PB (converted)
Could you please report measured fraction unbound for the items listed next?

Observe how each entry below is paired with its result.
>>> value_reported("COc1ccc([C@H](CC(=O)O)N2CCN(CCCc3ccc4c(n3)N[C@H](C)CC4)C2=O)cn1")
0.08
>>> value_reported("COc1ccc([C@H](CC(=O)O)N2CCN(CCCc3ccc4c(n3)N[C@@H](C)CC4)C2=O)cn1")
0.05
>>> value_reported("COc1ccc([C@H](CC(=O)O)N2CCN(CCCc3ccc4c(n3)NCCC4)C2=O)cn1")
0.12

Consider the additional compound presented here.
The recorded fraction unbound for `COc1ccc([C@H](CC(=O)O)N2CCN(CCCc3nc4c(cc3C)CCCN4)C2=O)cn1` is 0.22
